Kindly supply the reported PBM E-score values for the records listed here.
Tested on: Caupolican (Caup) homeodomain DNA-binding domain
Sequence: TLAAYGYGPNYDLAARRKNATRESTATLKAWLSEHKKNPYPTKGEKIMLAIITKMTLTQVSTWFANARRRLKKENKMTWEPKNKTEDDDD
Assay: PBM E-score (8-mer, recovered from the published 9-mer minima) (E-score (dimensionless, -0.5 to 0.5)); higher = stronger relative binding preference, active = 0.31 or more
The full list was thinned out, with hits kept by preference. The true hit rate is not given.
Numbers only.

Consider the reported PBM E-score for these sequences:
- CTATACGA: 0.0334
- GCACATCA: 0.0977

// input: 5 sequences below; output: PBM E-score for each
1. ACGGACCC
2. ACACGGTA
3. ATATATCG
4. AATTAAGG
5. ACAGCAAT

Marked response:
-0.139
0.327
0.0746
0.0103
0.163

Each sequence below has a recorded value; state its PBM E-score.
1. CCGGTCAA
2. CTCGTGAC
3. AAGTGTAG
4. CACATTAC
5. GAACATCA

Marked response:
1: -0.0503; 2: -0.0131; 3: 0.17; 4: 0.141; 5: 0.259

Provide PBM E-score values for the following items, in order.
1. ACACGGAA
2. ACACGGAT
3. CCTGTATA
4. CTGAGCGC
5. AGCGGGGG

Marked response:
[0.291, 0.339, 0.142, -0.211, -0.28]

Each of the following entries comes with a recorded value; kindly state PBM E-score for each.
1. ATACATCC
2. CCGCTACA
3. CCGTGTAC
4. CGATGTTC
5. CGGTGAAA

Marked response:
[0.276, 0.0971, 0.411, 0.249, -0.001]

Please report PBM E-score for every entry that follows.
1. GCATGGAA
2. CCGTGTCC
3. ACCTGTAT
4. CAAGGACG
5. ACGTTTGG
6. CTACATCA

Marked response:
[-0.00398, 0.218, 0.222, -0.0604, 0.0157, 0.253]

====

System: Caupolican (Caup) homeodomain DNA-binding domain
Sequence: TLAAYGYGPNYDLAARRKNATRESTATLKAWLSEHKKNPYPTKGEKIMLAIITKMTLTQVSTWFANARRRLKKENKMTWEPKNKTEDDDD
Test: PBM E-score (8-mer, recovered from the published 9-mer minima) (E-score (dimensionless, -0.5 to 0.5)); higher = stronger relative binding preference, active = 0.31 or more
The full list was thinned out, with hits kept by preference. The hit rate among all sequences tested is not known here.
The reply should be one of these categories: active, inactive

• GCATGATA = inactive
• CTACTCAA = inactive
• AATGACAA = active
• ATAACCGC = inactive

Exam item: Look up the recorded call for ATATGATG in this test.
Marked response: inactive

Exam item: What did this assay record as the result for TAAACATA ?
Marked response: active

Exam item: Fill in: this test's call for ACATAATA is ___
Marked response: active

====

System: Caupolican (Caup) homeodomain DNA-binding domain
Sequence: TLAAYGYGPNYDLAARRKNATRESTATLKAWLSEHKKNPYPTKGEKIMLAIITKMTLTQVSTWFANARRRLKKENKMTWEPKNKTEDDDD
Assay: PBM E-score (8-mer, recovered from the published 9-mer minima) (E-score (dimensionless, -0.5 to 0.5)); Drosophila protein; higher = stronger relative binding preference, active = 0.31 or more
This is one part of a sample in which hits are shown more often than they occur. No count for the full screen is at hand.
Your response should consist of one outcome taken from 1 = active, -1 = inactive

For orientation, consider the following solved cases.
• TGAGTACA = -1
• GCACCGCA = -1
• AGCAGTCG = -1
• TAAGTAAA = -1
• CTTTGCTC = -1

Exam item: What call does the record list for CCCTTGTC ?
Marked response: -1

Exam item: Call for entry AGGGCCGC :
Marked response: -1

Exam item: What was the test verdict on GCACAAGA ?
Marked response: -1

Exam item: What call does the record list for GTATGAGA ?
Marked response: -1

Exam item: Record request — test call for AAAACATG
Marked response: 1

Exam item: Could you please tell me the result logged for CAAACACG in this assay?
Marked response: 1

Exam item: For GTACAAAA , what call appears in the results of this test?
Marked response: 1

Exam item: Dear all, I need the recorded test outcome for CATACATG , thank you.
Marked response: 1

Exam item: # outcome recorded in this test, key = CTAACATA
Marked response: -1
